Where these numbers come from: paper PMC12136788

# binding signal listing for each entry below
- measured.on: T1, UNK ZnF1-3 (human, UniProt Q9C0B0 31-174)
- T1 sequence: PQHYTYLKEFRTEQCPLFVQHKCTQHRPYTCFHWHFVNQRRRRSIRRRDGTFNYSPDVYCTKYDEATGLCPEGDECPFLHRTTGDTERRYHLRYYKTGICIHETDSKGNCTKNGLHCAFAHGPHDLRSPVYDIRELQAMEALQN
- assay.info: nsRBNS (natural sequence RNA bind-n-seq); RBNS binding buffer (assumed for nsRBNS): 25 mM Tris pH 7.5, 150 mM KCl, 3 mM MgCl2, 0.01% Triton X-100, 500 ug/ml BSA, 20 U/ml SUPERase-In, 4 C; UNK is unkempt and MSI1 is Musashi-1; names of the RNAs are library labels; protein concentration not given here; high values mean tight binding
Whole data set: some 24,000 sequences, median “enrichment r” near 0.99, cut for the highest 2% near 3.7. Only a selection was taken, and the highest values are over-represented in it overall.
Include the unit after the number when you answer.

Incoming: Could you share which binding signal value was measured for chr15:31520727:31520728:-_ENSMUSG00000022234_ENSMUST00000022842|mus_mus|FALSE|FALSE (ssRNA) RNA: GGGAGUUCUACAGUCCGACGAUCAGUUUAUUCUUCAGAUUCUCCAGGCUUACGGAUGUCAUCAAUCUUCAGAAUCAUCCUAACCAUCUGGGUGGCAAGAGAGAUCUGCUGCUUUUUGCCAAUCAAGGUUUCUAUGACAUGCUGCAACAGAGGAUUGAGCAUCA ?
Outgoing: 0.637 enrichment R

Further cases:
Incoming: State the recorded binding signal for this entry: 49433355_49433581_8031_CDS_ENSG00000167548_ENST00000301067|human|control|control (ssRNA) RNA: GGGAGUUCUACAGUCCGACGAUCGCGCUGGAUCUGCUGCCGAAUCAGCAGCUCUCGUAGUCGCUGGCGCUGCCGUUGCUUCUCCAGCUCUGUUUGGCUAAGGCCGGACAUGCCUGGGUCCUGGGUACCUGGGAGUUCAGCUGUCAACAGAGGAUUGAGCAUCA
Outgoing: 0.484 enrichment R

Incoming: Reported binding signal, binder chrX:77155053:77155054:+_ENSG00000131174_ENST00000481445|hu_hu|motif|central (ssRNA) RNA: GGGAGUUCUACAGUCCGACGAUCCGAACUUGGAGACGAUUUAGUGCGCUUUUGACCAAGGGAAACAUCGUGAAGGUGAAGCGGGAACUGCGGCAAUACAGCUGCUGCUUUGGUGCCAAUUCGCUUCAGGUACCCUUGAAGUGACAACAGAGGAUUGAGCAUCA : ____
Outgoing: 0.887 enrichment R
